// provenance: patent US20080050375A1

# ASSAYED_TARGET: T1, human TGF-beta 1 (R&D Systems, Cat # 240-B/CF) (human, UniProt P01137 279-390)
# T1 construct: They match K95 and residues 58-61 of mature numbering; also called TGF-β1; mature TGF-β1
# T1 sequence (P01137 279-390 limits assumed): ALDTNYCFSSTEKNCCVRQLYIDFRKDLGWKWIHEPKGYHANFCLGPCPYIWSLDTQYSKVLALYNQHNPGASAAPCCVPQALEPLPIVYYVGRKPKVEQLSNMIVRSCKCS
# PROTOCOL_SUMMARY: KinExA 3000, equilibrium, Fab in solution
MEASURED_QUANTITY: Kd

>  <BINDER>
Fab DM7 (Fab, V domains shown, Fab with human constant regions (kappa light chain)) VH: QVQLVQSGAEVKKPGASVKVSCKASGYDFTDYNMHWVRQAPGQGLEWMGYIYPYDGETGYNQKFKSRVTMTTDTSTSTAYMELRSLRSDDTAVYYCARGYRWLYYWGQGTLVTVSS VL: DIQMTQSPSSLSASVGDRVTITCRASSSVSYMHWYQQKPGKAPKPLIYATSNLAKGVPSRFSGSGSGTDFTLTISSLQPEDFATYYCQQWDLNPPAFGQGTKLEIK

>  <REPORTED_MEASUREMENT>
0.5 pM

$$$$
